Some binders, each annotated with its measured cAMP EC50.
- STUDY_SYSTEM: T1, human parathyroid hormone receptor 1, wild-type (hPTHR-1) (human, UniProt Q03431 27-593)
- T1 sequence (looked up): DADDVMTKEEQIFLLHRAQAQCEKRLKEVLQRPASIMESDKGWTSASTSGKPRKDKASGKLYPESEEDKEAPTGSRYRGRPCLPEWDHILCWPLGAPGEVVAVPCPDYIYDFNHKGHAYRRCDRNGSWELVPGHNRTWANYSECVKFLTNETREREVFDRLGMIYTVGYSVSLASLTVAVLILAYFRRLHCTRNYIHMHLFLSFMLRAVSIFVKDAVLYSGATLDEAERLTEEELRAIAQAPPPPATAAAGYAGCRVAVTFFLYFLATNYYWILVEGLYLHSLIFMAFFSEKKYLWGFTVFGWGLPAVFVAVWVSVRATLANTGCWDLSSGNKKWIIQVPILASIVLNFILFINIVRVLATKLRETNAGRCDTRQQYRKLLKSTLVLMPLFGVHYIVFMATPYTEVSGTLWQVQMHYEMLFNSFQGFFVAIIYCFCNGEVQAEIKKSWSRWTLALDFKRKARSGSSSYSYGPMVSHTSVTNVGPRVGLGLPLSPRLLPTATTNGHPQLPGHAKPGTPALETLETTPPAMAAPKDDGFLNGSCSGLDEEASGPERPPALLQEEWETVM
- PROTOCOL_DESCRIPTION: cell-based or functional assay
Non-standard residues stand in square brackets, D forms with d. No end group written: not given here. ACPC = 2-aminocyclopentane carboxylic acid; β3hS = N[C@@H](CO)CC(=O)O
Entry rule: numbers only, all in pM.

Consider the following illustrative entries.
| BINDER | ENDPOINT_NAME | RESULT_NUMBER |
| --- | --- | --- |
| SVSEIQ[ACPC]MHNLGKHLNSMERVEWLRKKLQDVHNF-NH2 [ACPC(7) PTH(1-34)] | cAMP EC50 | 120 |
| SVSE[ACPC]QLMHNLGKHLNSMERVEWLRKKLQDVHNF-NH2 [ACPC(5) PTH(1-34)] | cAMP EC50 | 170 |
| [β3hS]VSEIQLMHNLGKHLNSMERVEWLRKKLQDVHNF-NH2 [β3Ser(1) PTH(1-34)] | cAMP EC50 | 60 |

Prompt line: // returns reported cAMP EC50 for input SV[ACPC]EIQLMHNLGKHLNSMERVEWLRKKLQDVHNF-NH2 [ACPC(3) PTH(1-34)]
Response line: 11500

Prompt line: Need cAMP EC50, item [ACPC]VSEIQLMHNLGKHLNSMERVEWLRKKLQDVHNF-NH2 [ACPC(1) PTH(1-34)]
Response line: 150

Prompt line: Need cAMP EC50 of SVSEI[ACPC]LMHNLGKHLNSMERVEWLRKKLQDVHNF-NH2 [ACPC(6) PTH(1-34)] , thanks.
Response line: 340
